So I've got a bunch of compounds here, and I need their MIC values.
- System: Moraxella catarrhalis
- Assay procedure: Antimicrobial activity against Moraxella catarrhalis K1209 by NCCLS method
- Type: functional
One number for each entry, in µg/mL.

CN[C@H](CC(C)C)C(=O)N[C@H]1C(=O)N[C@@H](CC(N)=O)C(=O)N[C@H]2C(=O)N[C@H]3C(=O)N[C@H](C(=O)N[C@H](C(=O)O)c4cc(O)cc(O)c4-c4cc3ccc4O)[C@H](O)c3ccc(c(Cl)c3)Oc3cc2cc(c3O[C@@H]2O[C@H](CO)[C@@H](O)[C@H](O)[C@H]2O[C@H]2C[C@](C)(N)[C@H](O)[C@H](C)O2)Oc2ccc(cc2Cl)[C@H]1O [VANCOMYCIN]: 64
C=C[C@]1(C)C[C@@H](OC(=O)CN2CCN(C(=O)CCn3cnc4c(N5CCC(CN)C5)ncnc43)CC2)[C@]2(C)[C@H](C)CC[C@]3(CCC(=O)[C@@H]32)[C@@H](C)[C@@H]1O.Cl.Cl (some centres undefined): 0.5
C=C[C@]1(C)C[C@@H](OC(=O)CN2CCN(C(=O)CCn3cnc4c(N5CCC(N)C5)ncnc43)[C@H](C)C2)[C@]2(C)[C@H](C)CC[C@]3(CCC(=O)[C@@H]32)[C@@H](C)[C@@H]1O.Cl.Cl (some centres undefined): 0.25
C=C[C@]1(C)C[C@@H](OC(=O)CN2CCN(C(=O)CCn3cnc4c(N5CC[C@@H](CNC)C5)ncnc43)CC2)[C@]2(C)[C@H](C)CC[C@]3(CCC(=O)[C@@H]32)[C@@H](C)[C@@H]1O.Cl.Cl: 0.125
C=C[C@]1(C)C[C@@H](OC(=O)CN2CCN(C(=O)CCn3cnc4c(N5CC[C@H](CNC)C5)ncnc43)CC2)[C@]2(C)[C@H](C)CC[C@]3(CCC(=O)[C@@H]32)[C@@H](C)[C@@H]1O.Cl.Cl: 0.125
C=C[C@]1(C)C[C@@H](OC(=O)CN2CCN(C(=O)CCn3cnc4c(N5CCC(NC)C5)ncnc43)CC2)[C@]2(C)[C@H](C)CC[C@]3(CCC(=O)[C@@H]32)[C@@H](C)[C@@H]1O.Cl (some centres undefined): 0.25
C=C[C@]1(C)C[C@@H](OC(=O)CN2CCN(C(=O)CCn3cnc4c(N5CCC(CNC)C5)ncnc43)[C@@H](C)C2)[C@]2(C)[C@H](C)CC[C@]3(CCC(=O)[C@@H]32)[C@@H](C)[C@@H]1O.Cl.Cl (some centres undefined): 0.125
C=C[C@]1(C)C[C@@H](OC(=O)CN2CCN(C(=O)CCn3cnc4c(N5CCC(N)C5)ncnc43)C(CC)C2)[C@]2(C)[C@H](C)CC[C@]3(CCC(=O)[C@@H]32)[C@@H](C)[C@@H]1O.Cl.Cl (some centres undefined): 0.125

Below: the item to evaluate.
input: If you can, please state the reported MIC value of C=C[C@]1(C)C[C@@H](OC(=O)CN2CC(C)N(C(=O)CCn3cnc4c(N5CCC(N)C5)ncnc43)CC2C)[C@]2(C)[C@H](C)CC[C@]3(CCC(=O)[C@@H]32)[C@@H](C)[C@@H]1O.Cl.Cl (some centres undefined) .
output: 0.125

====

- Test system: Staphylococcus aureus
- Assay procedure: Antimicrobial activity against methicillin-susceptible Staphylococcus aureus infected iv dosed mouse assessed as survival rate after 1 hr of infection
- Assay type: functional
Observable: ED50 (mg/kg)
Give bare numbers, in mg/kg.

In the examples that follow, each entry is paired with its recorded ED50.
CN[C@H](CC(C)C)C(=O)N[C@H]1C(=O)N[C@@H](CC(N)=O)C(=O)N[C@H]2C(=O)N[C@H]3C(=O)N[C@H](C(=O)N[C@H](C(=O)O)c4cc(O)cc(O)c4-c4cc3ccc4O)[C@H](O)c3ccc(c(Cl)c3)Oc3cc2cc(c3O[C@@H]2O[C@H](CO)[C@@H](O)[C@H](O)[C@H]2O[C@H]2C[C@](C)(N)[C@H](O)[C@H](C)O2)Oc2ccc(cc2Cl)[C@H]1O [VANCOMYCIN]: 0.88
C=C[C@]1(C)C[C@@H](OC(=O)CN2CCN(C(=O)CCn3cnc4c(N5CCC(CN)C5)ncnc43)CC2)[C@]2(C)[C@H](C)CC[C@]3(CCC(=O)[C@@H]32)[C@@H](C)[C@@H]1O.Cl.Cl (stereo not given in full): 1.21
C=C[C@]1(C)C[C@@H](OC(=O)CN2CCN(C(=O)CCn3cnc4c(N5CC[C@@H](CNC)C5)ncnc43)CC2)[C@]2(C)[C@H](C)CC[C@]3(CCC(=O)[C@@H]32)[C@@H](C)[C@@H]1O.Cl.Cl: 1.18

input: For C=C[C@]1(C)C[C@@H](OC(=O)CN2CCN(C(=O)CCn3cnc4c(N5CCC(NCC)C5)ncnc43)CC2)[C@]2(C)[C@H](C)CC[C@]3(CCC(=O)[C@@H]32)[C@@H](C)[C@@H]1O.Cl.Cl (stereo not given in full) , what is its reported ED50?
output: 2.21
